SYSTEM: Recombinant human his-tagged IGF 1R extracellular domain protein (human) (UniProt P08069)
PROTOCOL DESCRIPTION: SPR, captured IgG, IGF-1R ECD-his analyte, dissociation pH 6
MEASURE NAME: koff (s⁻¹)
// units = s⁻¹; emit number, no label

Known results for binders:
- BINDER: "VRDN-02527 (antibody, V domains shown) VH: EVQLVQSGGGLVKPGGSLRLSCAASGFTFSSFAMHWVRQAPGKGLEWISVIDTRGATYYADSVKGRFTISRDNAKNSLYLQMNSLRAEDTAVYYCARLGNFYYGMDHWGQGTTVTVSS VL: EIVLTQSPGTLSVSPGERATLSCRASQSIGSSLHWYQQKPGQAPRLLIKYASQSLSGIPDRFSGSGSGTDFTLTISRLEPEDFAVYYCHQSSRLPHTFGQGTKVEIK"
  MEASURE NAME: "koff"
  UNIT OF MEASUREMENT: "s⁻¹"
  QUANTITATIVE READOUT: "1e-06"
- BINDER: "VRDN-02520 (antibody, V domains shown) VH: EVQLVQSGGGLVKPGGSLRLSCAASGFTFSSFAMHWVRQAPGKGLEWISVIDTRGATYYADSVKGRFTISRDNAKNSLYLQMNSLRAEDTAVYYCARLGHFYYGMDVWGQGTTVTVSS VL: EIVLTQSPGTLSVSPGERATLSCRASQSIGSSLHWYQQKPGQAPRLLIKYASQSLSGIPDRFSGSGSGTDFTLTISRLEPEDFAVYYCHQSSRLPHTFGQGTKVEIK"
  MEASURE NAME: "koff"
  UNIT OF MEASUREMENT: "s⁻¹"
  QUANTITATIVE READOUT: "1e-06"

We next turn to a different binder, shown below.
Q. Could you tell me which koff is on file for VRDN-02514 (antibody, V domains shown) VH: EVQLVQSGGGLVKPGGSLRLSCAASGFTFSSFAMHWVRQAPGKGLEWISVIDTRGHTYYADSVKGRFTISRDNAKNSLYLQMNSLRAEDTAVYYCARLGNFYYGMDVWGQGTTVTVSS VL: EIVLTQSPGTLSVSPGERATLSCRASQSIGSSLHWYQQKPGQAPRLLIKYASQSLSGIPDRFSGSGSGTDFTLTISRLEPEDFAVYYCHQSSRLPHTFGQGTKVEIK ?
A. 1e-06
